test-target: SpRvs167
assay-procedure: SPOT peptide array binding signal intensity (averaged, normalized) (arbitrary units (background-subtracted, floor 0; scale differs between SH3 domains)); higher = stronger binding of the SH3 domain to the peptide
Returns rule met if the recorded SPOT peptide array binding signal intensity is greater than or equal to 30, and rule not met otherwise.

See these solved cases before continuing.
GTIARPLFLVVLFFI rule not met
DLPLPDLPPEPPTEL rule not met
GPPPPLPPPLFPSSS rule met
VFQFQMPTTPISTKM rule not met
LLGRKRPVMERVVDI rule not met

IN: Hello, I need to know if `NILKRRPLKLEAPSK` has measured SPOT peptide array binding signal intensity not below 30. Thanks!
OUT: rule not met

IN: Hello, I need to know if `EQEEIAPSLPSRNSI` has measured SPOT peptide array binding signal intensity not below 30. Thanks!
OUT: rule met
